Molecular target: TYRO3/SKY (Homo sapiens, UniProt Q06418)
Sequence (Q06418 41-890): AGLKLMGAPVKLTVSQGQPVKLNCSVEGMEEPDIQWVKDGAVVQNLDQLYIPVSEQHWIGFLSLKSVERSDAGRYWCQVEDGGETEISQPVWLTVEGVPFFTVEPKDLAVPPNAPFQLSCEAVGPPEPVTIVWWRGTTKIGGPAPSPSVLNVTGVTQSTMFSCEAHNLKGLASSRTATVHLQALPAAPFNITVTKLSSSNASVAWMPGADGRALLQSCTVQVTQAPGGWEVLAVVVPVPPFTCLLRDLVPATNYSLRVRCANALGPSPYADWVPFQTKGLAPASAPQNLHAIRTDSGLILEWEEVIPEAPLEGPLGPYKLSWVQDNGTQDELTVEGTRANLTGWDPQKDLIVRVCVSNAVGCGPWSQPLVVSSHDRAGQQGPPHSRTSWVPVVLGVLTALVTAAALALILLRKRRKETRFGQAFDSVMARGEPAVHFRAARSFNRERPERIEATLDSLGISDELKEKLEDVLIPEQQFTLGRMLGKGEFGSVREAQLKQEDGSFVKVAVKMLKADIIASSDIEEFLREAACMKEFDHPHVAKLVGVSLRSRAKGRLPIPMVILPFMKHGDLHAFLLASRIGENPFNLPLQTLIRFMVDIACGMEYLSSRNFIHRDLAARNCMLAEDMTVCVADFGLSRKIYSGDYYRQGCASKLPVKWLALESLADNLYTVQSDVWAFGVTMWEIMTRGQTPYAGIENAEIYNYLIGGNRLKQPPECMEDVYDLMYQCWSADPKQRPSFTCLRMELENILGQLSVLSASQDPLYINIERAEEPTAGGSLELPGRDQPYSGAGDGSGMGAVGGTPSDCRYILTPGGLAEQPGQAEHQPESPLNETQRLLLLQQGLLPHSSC
Test: HotSpot Kinase Assay, TYRO3/SKY
pIC50: −log10 of the molar value.
property: pIC50

COc1cc2c(Oc3ccc(NC(=O)C4(C(=O)Nc5ccc(F)cc5)CC4)cc3)ccnc2cc1OC(=O)N1CCN(C)[C@@H](C)C1
6.00 to 7.00

Report measured pIC50 on TYRO3/SKY (Homo sapiens, UniProt Q06418); entry: COc1cc2c(Oc3ccc(NC(=O)C4(C(=O)Nc5ccc(F)cc5)CC4)cc3)ccnc2cc1OC(=O)N1CCN(C)[C@H](C)C1 6.00 to 7.00

Report measured pIC50 on TYRO3/SKY (Homo sapiens, UniProt Q06418); entry: COc1cc2c(Oc3ccc(NC(=O)C4(C(=O)Nc5ccc(F)cc5)CC4)cc3)ncnc2cc1OC(=O)N1CCN(C)C[C@H]1C 6.00 to 7.00

Report measured pIC50 on TYRO3/SKY (Homo sapiens, UniProt Q06418); entry: COc1cc2c(Oc3ccc(NC(=O)C4(C(=O)Nc5ccc(F)cc5)CC4)cc3)ccnc2cc1OC(=O)N(C)C < 6.00

Report measured pIC50 on TYRO3/SKY (Homo sapiens, UniProt Q06418); entry: COc1cc2c(Oc3ccc(NC(=O)C4(C(=O)Nc5ccc(F)cc5)CC4)cc3)ccnc2cc1OC(=O)N1C[C@@H]2C[C@H]1CN2C 6.00 to 7.00

Report measured pIC50 on TYRO3/SKY (Homo sapiens, UniProt Q06418); entry: COc1cc2nccc(Oc3ccc(NC(=O)C4(C(=O)Nc5ccc(F)cc5)CC4)cc3)c2cc1OC(=O)N1CCN(C)CC1(C)C 6.00 to 7.00

Report measured pIC50 on TYRO3/SKY (Homo sapiens, UniProt Q06418); entry: COc1cc2c(Oc3ccc(NC(=O)C4(C(=O)Nc5ccc(F)cc5)CC4)cc3)ccnc2cc1OC(=O)N1Cc2cn(S(C)(=O)=O)nc2C1 < 6.00

---

Target: c-MER (Homo sapiens, UniProt Q12866)
Sequence (Q12866 21-999): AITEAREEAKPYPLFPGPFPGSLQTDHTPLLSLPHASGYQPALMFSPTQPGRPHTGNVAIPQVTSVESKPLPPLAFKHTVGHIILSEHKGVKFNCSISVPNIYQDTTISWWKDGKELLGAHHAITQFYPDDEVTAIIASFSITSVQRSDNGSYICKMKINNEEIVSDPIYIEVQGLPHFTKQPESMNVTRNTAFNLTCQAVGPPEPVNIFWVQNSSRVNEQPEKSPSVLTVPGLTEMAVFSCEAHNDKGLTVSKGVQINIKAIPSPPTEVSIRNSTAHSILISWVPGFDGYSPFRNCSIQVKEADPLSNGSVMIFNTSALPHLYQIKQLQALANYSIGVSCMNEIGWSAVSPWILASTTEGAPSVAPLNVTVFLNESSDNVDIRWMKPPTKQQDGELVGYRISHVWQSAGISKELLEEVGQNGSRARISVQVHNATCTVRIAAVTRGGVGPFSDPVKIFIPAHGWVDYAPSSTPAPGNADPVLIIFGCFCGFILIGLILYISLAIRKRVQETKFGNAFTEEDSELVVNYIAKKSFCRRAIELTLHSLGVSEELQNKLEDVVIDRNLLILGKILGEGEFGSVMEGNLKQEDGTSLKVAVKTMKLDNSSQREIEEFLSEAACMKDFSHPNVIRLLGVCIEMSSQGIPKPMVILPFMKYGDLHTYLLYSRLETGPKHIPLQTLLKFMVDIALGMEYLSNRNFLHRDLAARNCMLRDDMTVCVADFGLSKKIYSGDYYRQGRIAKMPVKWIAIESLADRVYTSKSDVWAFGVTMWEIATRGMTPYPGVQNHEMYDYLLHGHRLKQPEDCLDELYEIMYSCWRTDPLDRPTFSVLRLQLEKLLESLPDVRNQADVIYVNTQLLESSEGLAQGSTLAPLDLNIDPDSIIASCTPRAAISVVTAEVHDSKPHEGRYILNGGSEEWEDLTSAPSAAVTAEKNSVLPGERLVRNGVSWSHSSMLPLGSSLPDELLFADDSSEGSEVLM
Experiment: HotSpot Kinase Assay, c-MER
property: IC50

Completed entries (count: 5):
COc1cc2c(Oc3ccc(NC(=O)C4(C(=O)Nc5ccc(F)cc5)CC4)cc3F)ccnc2cc1OC(=O)N1CCN(C)C[C@@H]1C
< 100 nM
COc1cc2c(Oc3ccc(NC(=O)C4(C(=O)Nc5ccc(F)cc5)CC4)cc3)ccnc2cc1OC(=O)N1CCNCC1(C)C
< 100 nM
COc1cc2nccc(Oc3ccc(NC(=O)C4(C(=O)Nc5ccc(F)cc5)CC4)cc3)c2cc1OC(=O)N1CCN(C)CC1
< 100 nM
COc1cc2c(Oc3ccc(NC(=O)C4(C(=O)Nc5ccc(F)cc5)CC4)cc3)ncnc2cc1OC(=O)N1CCNC[C@H]1C
100 to 1000 nM
COc1cc2c(Oc3ccc(NC(=O)C4(C(=O)Nc5ccc(F)cc5)CC4)cc3)ccnc2cc1OC(=O)N1CCN(C)C[C@H]1C
< 100 nM

Consider now this further compound.
Given COc1cc2c(Oc3ccc(NC(=O)C4(C(=O)Nc5ccc(F)cc5)CC4)cc3)ccnc2cc1OC(=O)N1CCN(C)[C@H](C)C1 , respond with its IC50. < 100 nM

---

pIC50: recorded values
Target: AXL (Homo sapiens, UniProt P30530)
Sequence (P30530 26-894): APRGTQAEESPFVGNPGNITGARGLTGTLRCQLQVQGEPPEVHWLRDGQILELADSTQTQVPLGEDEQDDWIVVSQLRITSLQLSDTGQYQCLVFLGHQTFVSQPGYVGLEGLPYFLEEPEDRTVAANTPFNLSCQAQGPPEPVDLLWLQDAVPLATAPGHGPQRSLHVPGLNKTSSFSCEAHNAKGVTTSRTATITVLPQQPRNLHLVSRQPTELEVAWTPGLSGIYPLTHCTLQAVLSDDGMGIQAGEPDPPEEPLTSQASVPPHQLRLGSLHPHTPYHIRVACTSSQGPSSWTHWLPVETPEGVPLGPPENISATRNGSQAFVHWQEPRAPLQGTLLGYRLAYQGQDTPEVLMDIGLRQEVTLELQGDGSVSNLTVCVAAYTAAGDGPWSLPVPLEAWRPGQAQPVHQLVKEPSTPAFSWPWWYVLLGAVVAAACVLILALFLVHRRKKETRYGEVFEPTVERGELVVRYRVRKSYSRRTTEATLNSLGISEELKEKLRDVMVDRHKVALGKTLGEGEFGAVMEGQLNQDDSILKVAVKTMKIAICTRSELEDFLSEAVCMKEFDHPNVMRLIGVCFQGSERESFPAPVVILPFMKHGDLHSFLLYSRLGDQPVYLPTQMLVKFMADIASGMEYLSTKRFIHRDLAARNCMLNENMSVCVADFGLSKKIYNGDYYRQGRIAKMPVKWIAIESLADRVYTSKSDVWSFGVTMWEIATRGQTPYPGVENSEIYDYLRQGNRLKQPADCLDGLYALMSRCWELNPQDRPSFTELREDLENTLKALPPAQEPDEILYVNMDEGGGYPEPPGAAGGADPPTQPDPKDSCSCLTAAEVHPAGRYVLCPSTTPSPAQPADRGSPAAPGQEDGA
pIC50: −log10 of the molar value.

Completed entries (count: 3):
COc1cc2c(Oc3ccc(NC(=O)C4(C(=O)Nc5ccc(F)cc5)CC4)cc3)ccnc2cc1OC(=O)N1CCN(C)C[C@@H]1C [Compound 1-12]
> 7.00
COc1cc2c(Oc3ccc(NC(=O)C4(C(=O)Nc5ccc(F)cc5)CC4)cc3)ccnc2cc1OC(=O)N1CCNCC1(C)C [Compound 6-5]
> 7.00
COc1cc2c(Oc3ccc(NC(=O)C4(C(=O)Nc5ccc(F)cc5)CC4)cc3)ccnc2cc1N1CCNC1=O [Compound 10-2]
> 7.00

Consider now this further compound.
Report measured pIC50 on AXL (Homo sapiens, UniProt P30530); entry: COc1cc2c(Oc3ccc(NC(=O)C4(C(=O)Nc5ccc(F)cc5)CC4)cc3)ccnc2cc1OC(=O)N(C)C [Compound 1-15] 6.00 to 7.00

---

Target: LOK/STK10 (Homo sapiens, UniProt O94804)
Sequence (O94804 whole entry): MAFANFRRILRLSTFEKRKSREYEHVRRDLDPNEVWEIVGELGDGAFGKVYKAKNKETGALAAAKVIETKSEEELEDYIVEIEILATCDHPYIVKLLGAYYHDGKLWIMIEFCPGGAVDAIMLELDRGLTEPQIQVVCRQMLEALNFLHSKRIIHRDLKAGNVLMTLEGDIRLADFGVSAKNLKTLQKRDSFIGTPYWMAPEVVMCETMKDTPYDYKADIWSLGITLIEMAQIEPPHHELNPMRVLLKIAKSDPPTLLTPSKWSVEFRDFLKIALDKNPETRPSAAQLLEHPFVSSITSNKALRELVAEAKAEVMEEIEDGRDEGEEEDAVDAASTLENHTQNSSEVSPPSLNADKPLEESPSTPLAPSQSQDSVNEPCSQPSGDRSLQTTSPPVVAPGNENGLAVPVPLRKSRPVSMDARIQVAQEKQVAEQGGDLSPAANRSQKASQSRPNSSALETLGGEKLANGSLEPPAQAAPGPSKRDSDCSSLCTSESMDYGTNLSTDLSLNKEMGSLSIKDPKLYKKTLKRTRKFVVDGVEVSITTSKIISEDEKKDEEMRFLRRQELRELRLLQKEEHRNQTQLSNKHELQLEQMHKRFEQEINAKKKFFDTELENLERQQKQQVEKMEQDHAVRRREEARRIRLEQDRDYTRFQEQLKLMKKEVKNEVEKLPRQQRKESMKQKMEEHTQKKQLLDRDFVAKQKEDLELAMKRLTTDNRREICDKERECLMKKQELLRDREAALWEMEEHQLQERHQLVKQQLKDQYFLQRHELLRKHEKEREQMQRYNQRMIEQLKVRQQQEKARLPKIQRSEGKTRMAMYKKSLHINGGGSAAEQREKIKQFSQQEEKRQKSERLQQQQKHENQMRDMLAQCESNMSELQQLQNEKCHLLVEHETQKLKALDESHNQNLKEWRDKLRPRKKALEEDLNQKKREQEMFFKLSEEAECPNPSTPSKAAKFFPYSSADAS
Assay: HotSpot Kinase Assay, LOK/STK10
IC50: recorded values

COc1cc2c(Oc3ccc(NC(=O)C4(C(=O)Nc5ccc(F)cc5)CC4)cc3F)ccnc2cc1OC(=O)N1CCN(C)C[C@@H]1C
0.1 to 1 µM
COc1cc2nccc(Oc3ccc(NC(=O)C4(C(=O)Nc5ccc(F)cc5)CC4)cc3)c2cc1OC(=O)N1[C@H](C)CN(C)C[C@@H]1C
0.1 to 1 µM
COc1cc2nccc(Oc3ccc(NC(=O)C4(C(=O)Nc5ccc(F)cc5)CC4)cc3)c2cc1OC(=O)N1CCN(C)CC1(C)C
> 1 µM
COc1cc2c(Oc3ccc(NC(=O)C4(C(=O)Nc5ccc(F)cc5)CC4)cc3)ccnc2cc1N1CCNC1=O
0.1 to 1 µM
COc1cc2nccc(Oc3ccc(NC(=O)C4(C(=O)Nc5ccc(F)cc5)CC4)cc3)c2cc1OC(=O)N1CCN(C)CC1
0.1 to 1 µM

Report measured IC50 on LOK/STK10 (Homo sapiens, UniProt O94804); entry: COc1cc2c(Oc3ccc(NC(=O)C4(C(=O)Nc5ccc(F)cc5)CC4)cc3F)ncnc2cc1OC(=O)N1CCNC[C@H]1C 0.1 to 1 µM
